Recorded values, source ChEMBL document CHEMBL4014346.

Assay: Half life in Sprague-Dawley rat at 5 mg/kg, iv administered as single dose by HPLC-MS/MS analysis
Type: ADME, organism-based
Settings: in vivo
Readout Kind: half-life (h)
Numbers only, in h.

QUERY: Can you look up the measured half-life of COc1cncc(Cc2cc(-c3ccccc3)no2)c1 for me?
RESULT: 4.8

* * *

Assay: Tmax in Sprague-Dawley rat at 28 mg/kg, po administered as single dose by HPLC-MS/MS analysis
Format: ADME, organism-based
Settings: in vivo
Readout Kind: Tmax (h)
Numbers only, in h.

QUERY: Can you look up the measured Tmax of COc1cncc(Cc2cc(-c3ccccc3)no2)c1 for me?
RESULT: 2.5
